src = patent US8690874B2

system: subcutaneous rat implant model; experiment: Subcutaneous rat implant model, collagen/GFm sponges supplemented with calcium phosphates (Example 3/5); assay type: in vivo; details: inter-animal average; scoring of Table 7
Recorded Average Histology Score [0-5], one value per entry.
Reply with just the number.

Examples with their reported Average Histology Score [0-5] follow.
For O=C([O-])[O-].[Ca+2] [CaCO3 (calcite), calcium carbonate] the compound record lists Average Histology Score [0-5] as 1.0

For O=P([O-])([O-])[O-].O=P([O-])([O-])[O-].[Ca+2].[Ca+2].[Ca+2] [3CaO•P2O5 (α-TCP), tricalcium phosphate] the compound record lists Average Histology Score [0-5] as 1.1

For O=P([O-])([O-])[O-].O=P([O-])([O-])[O-].[Ca+2].[Ca+2].[Ca+2] [3CaO•P2O5 (β-TCP), tricalcium phosphate] the compound record lists Average Histology Score [0-5] as 1.3

For O=P([O-])([O-])OP(=O)([O-])[O-].[Ca+2].[Ca+2] [2CaO•P2O5•2H2O (CP), calcium pyrophosphate] the compound record lists Average Histology Score [0-5] as 2.3

Next:
For O=C([O-])[O-].[Ca+2] [CaCO3 (aragonite), calcium carbonate] the compound record lists Average Histology Score [0-5] as 1.0

###

tested on: subcutaneous rat implant model; experiment: Subcutaneous rat implant model, collagen/GFm sponges supplemented with calcium phosphates (Example 3/5); format: in vivo; settings: relative to intra-animal collagen/GFm control
quantity_kind: Mineral mass, Direct Comparison Δwt. % (% wt. %)
Enter your answer as a number in % wt. %; do not include the unit.

For O=P([O-])([O-])[O-].O=P([O-])([O-])[O-].[Ca+2].[Ca+2].[Ca+2] [3CaO•P2O5 (α-TCP), tricalcium phosphate] the molecule record lists Mineral mass, Direct Comparison Δwt. % as −28.3

For O=P([O-])([O-])[O-].O=P([O-])([O-])[O-].[Ca+2].[Ca+2].[Ca+2] [3CaO•P2O5 (β-TCP), tricalcium phosphate] the molecule record lists Mineral mass, Direct Comparison Δwt. % as −31.6

For O=C([O-])[O-].[Ca+2] [CaCO3 (calcite), calcium carbonate] the molecule record lists Mineral mass, Direct Comparison Δwt. % as −3.2

###

system: subcutaneous rat implant model; experiment: Subcutaneous rat implant model, collagen/GFm sponges supplemented with calcium phosphates (Example 3/5); assay type: in vivo; details: intra-animal comparison subset
// label = Yes if Explant mass, Direct Comparison Averages is not less than 70 mg, otherwise No

input: hey, is Explant mass, Direct Comparison Averages for this one >= 70 mg? O=C([O-])[O-].[Ca+2] [CaCO3 (calcite), calcium carbonate]
output: Yes

Next:
input: hey, is Explant mass, Direct Comparison Averages for this one >= 70 mg? O=P([O-])([O-])OP(=O)([O-])[O-].[Ca+2].[Ca+2] [2CaO•P2O5•2H2O (CP), calcium pyrophosphate]
output: Yes

input: hey, is Explant mass, Direct Comparison Averages for this one >= 70 mg? O=C([O-])[O-].[Ca+2] [CaCO3 (aragonite), calcium carbonate]
output: Yes

input: hey, is Explant mass, Direct Comparison Averages for this one >= 70 mg? O=P([O-])([O-])[O-].O=P([O-])([O-])[O-].[Ca+2].[Ca+2].[Ca+2] [3CaO•P2O5 (α-TCP), tricalcium phosphate]
output: No
